Target Or System: T1, SUMO-RRM R392E (Schizosaccharomyces pombe, UniProt Q9UTE3 388-540, R392E)
T1 sequence: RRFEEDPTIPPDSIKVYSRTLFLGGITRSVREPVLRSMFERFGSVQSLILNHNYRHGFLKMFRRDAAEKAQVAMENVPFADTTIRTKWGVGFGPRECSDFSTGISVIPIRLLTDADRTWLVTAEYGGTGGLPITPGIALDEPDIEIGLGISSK
Test Details: fluorescence anisotropy; 25 mM Tris-HCl pH 8.0, 100 mM NaCl, 2 mM MgCl2, 1 mM DTT, 16.7% glycerol, 0.1% IGEPAL, 0.1 mg/ml tRNA, 2.5% RNasin, 25 C, 40 nM FAM-RNA
Particulars: protein: recombinant; tags: N-terminal His6-SUMO; single strand
Attribute Measured: pKd
Friendly reminder that pKd comes from taking -log10 of the concentration in mol/L.

Give the value of pKd reported for the following: AUUAGUAAAA (ssRNA) [FAM-AUUAGUAAAA RNA]
5.48
